The measurements presented in this section are drawn from the supplement of paper PMC12340641.

tested on: HEK293FT dCK*-only; test: relative growth in counter assay (no AraC = 100%, AraC + DMSO = 0%); higher = more growth rescue independent of IKZF1; settings: compound concentration: 5 uM; AraC concentration: 0.3 uM; overnight pretreatment + 4 days AraC
Where a name gives a salt, the structure may show the parent alone.
QUANTITY_NAME: relative growth in counter assay (%)

O=C(/C=C/c1cccnc1)c1ccncc1 ... -28.4
CCCCOC(=O)c1ccc(N)cc1 ... -2.73
O=C(NCCO[N+](=O)[O-])c1cccnc1 ... -5.9
CO[C@H]1/C=C/O[C@@]2(C)Oc3c(C)c(O)c4c(O)c(c5c(c4c3C2=O)=NC2(CCN(CC(C)C)CC2)N=5)NC(=O)C(C)=CC=CC(C)[C@H](O)[C@@H](C)[C@@H](O)[C@@H](C)[C@H](OC(C)=O)[C@@H]1C (stereo partly drawn) ... 3.92
CN[C@H]1CC[C@@H](c2ccc(Cl)c(Cl)c2)c2ccccc21 ... 0.69
COc1ccc(C2CC(c3c(O)cc(C)oc3=O)=NCCS2)c(OC)c1 (stereo not drawn) ... -32.5
O=C(OC)C1=C(C)NC(C)=C(C(OCCCN3CCC(C4=CC=CC=C4)(C5=CC=CC=C5)CC3)=O)[C@@H]1[C@]2=CC=CC([N+]([O-])=O)=C2 ... -15.1
CNC(=O)c1cccc(-c2ccc3c(N4CCOC[C@@H]4C)nc(N4CCOC[C@@H]4C)nc3n2)c1 ... -33
COc1cc(C(=O)NS(=O)(=O)c2ccccc2C)ccc1Cc1cn(C)c2ccc(NC(=O)OC3CCCC3)cc12 ... -15.2
CCN(CC)c1ccc(C(=C2C=CC(=[N+](CC)CC)C=C2)c2ccccc2)cc1 ... -35
O=C(O)c1ccc(/C=C2/SC(=S)N(c3cccc(C(F)(F)F)c3)C2=O)cc1 ... -1.87
C=CCc1ccc(O)c(-c2cc(CC=C)ccc2O)c1 ... -9.5
C[n+]1c2cc(N)ccc2cc2ccc(N)cc21.Nc1ccc2cc3ccc(N)cc3nc2c1 [Acriflavine hydrochloride] ... -35.7
Cc1cc(N2CCCCC2)nc2ccccc12 ... -2.77
N=c1ccn2c(n1)O[C@H]1[C@H](O)[C@@H](CO)O[C@H]12 [Cyclocytidine HCl] ... -34
c1cc2c(cc1C1CCCCC1)c1c3n2CCNC3CCC1 (stereo not drawn) ... -33
CO[C@@]12[C@@H]3NC3CN1C1=C(C(=O)C(N)=C(C)C1=O)[C@@H]2COC(N)=O (stereo partly drawn) ... -33.6
C1CCC(C(CC2CCCCN2)C2CCCCC2)CC1 (stereo not drawn) ... -1.13

###

Reported values of relative growth in counter assay for individual entries
tested on: HEK293FT dCK*-only; assay: relative growth in counter assay (no AraC = 100%, AraC + DMSO = 0%); higher = more growth rescue independent of IKZF1; details: compound concentration: 5 uM; AraC concentration: 0.3 uM; overnight pretreatment + 4 days AraC
Where a name gives a salt, the structure may show the parent alone.
QUANTITY_NAME: relative growth in counter assay (%)

O=C1C=Cc2cc(Br)ccc2C1=O ... 1.29
CCCCC/N=c1/ccn(Cc2ccccc2)c2ccccc12 ... -2.74
O=C(NCc1ccc(OC(F)(F)F)cc1)C1c2ccccc2C(=O)N1C1CCOCC1 (centres undefined) ... -2.6
Cc1cccc(Nc2nc(-c3ccncc3)cs2)c1 ... -8.26
COc1cc(N2CCC(N3CCN(C(=O)CNc4cccc5c4C(=O)N(C4CCC(=O)NC4=O)C5=O)CC3)CC2)ccc1Nc1ncc(Cl)c(Nc2ccccc2P(C)(C)=O)n1 (centres undefined) ... -29.6
COc1cc(N2CCN(CCOCCOCCNC(=O)CNc3cccc4c3C(=O)N(C3CCC(=O)NC3=O)C4=O)CC2)ccc1Nc1ncc(Cl)c(Nc2ccccc2S(=O)(=O)C(C)C)n1 (centres undefined) ... -27.8
COCCOC(=O)C1=C(C)NC(C)=C(C(=O)OC/C=C/c2ccccc2)C1c1cccc([N+](=O)[O-])c1 (centres undefined) ... -4.05
CC[C@H](C)[C@H]1O[C@]2(CC[C@@H]1C)C[C@@H]1C[C@@H](C/C=C(\C)[C@@H](O[C@H]3C[C@H](OC)[C@@H](O[C@H]4C[C@H](OC)[C@@H](O)[C@H](C)O4)[C@H](C)O3)[C@@H](C)/C=C/C=C3\CO[C@@H]4[C@H](O)C(C)=CC(C(=O)O1)[C@]34O)O2 (some centres undefined) ... -2.12
O=[N+]([O-])c1ccc(O)c2ncccc12 ... -14.6
C/C(=N/Nc1nnc2c(n1)[nH]c1c(C)cccc12)c1ccccn1 ... -33
CCCCCCCCNC(C)C(O)c1ccc(SC(C)C)cc1 (centres undefined) ... 7.28
CN[C@H]1CC[C@@H](c2ccc(Cl)c(Cl)c2)c2ccccc21 [Sertraline HCl] ... -7.81
O=C1[C@H]2CCCC[C@H]2C(=O)N1CCCCN1CCN(c2nsc3ccccc23)CC1 ... 19.5
COc1cc(/C=C/C(=O)CC(=O)/C=C/c2ccc(O)c(OC)c2)ccc1O ... -25.9
O=S(=O)(O)CCSSCCS(=O)(=O)O ... -2.36
C/C(=N\NC(=S)N1CCC1)c1ccccn1 ... -34.6
CN1CCN(c2ncc(-c3cc(Cl)cc(Cl)c3Cl)c(N)n2)CC1 ... 5.22
CO/N=C1\C[C@]2(C[C@@H]3C[C@@H](C/C=C(\C)C[C@@H](C)/C=C/C=C4\CO[C@@H]5[C@H](O)C(C)=C[C@@H](C(=O)O3)[C@]45O)O2)O[C@H](/C(C)=C/C(C)C)[C@H]1C ... -0.37
C[n+]1c2cc(N)ccc2cc2ccc(N)cc21 ... -34.9
Nc1nnc(-c2cccc(Cl)c2Cl)c(N)n1 ... 0.9
CCCCCCCCCCCCCCCC[N+](C)(C)CCN(Cc1ccc(OC)cc1)c1ncccn1 [thonzonium bromide] ... -31
COc1ccc2c(C)nc(Nc3nc(C)c(C)c(O)n3)nc2c1 ... 6.01
COCC(=O)O[C@]1(CCN(C)CCCc2nc3ccccc3[nH]2)CCc2cc(F)ccc2[C@@H]1C(C)C ... -13.3
Cc1cc(NC(=O)C(c2ccccc2)N2CCCc3ccccc32)no1 (centres undefined) ... -9.71
Oc1c(I)cc(Cl)c2cccnc12 ... -3.3
CC(=O)N(O)[C@@H]1c2cc(C#N)ccc2OC(C)(C)[C@H]1O ... -4.7
Nc1ncnc2c1ncn2[C@@H]1O[C@H](COP(=O)(O)OP(=O)(O)OP(=O)(O)OP(=O)(O)OC[C@H]2O[C@@H](n3cnc4c(N)ncnc43)C(O)C2O)C(O)C1O (some centres undefined) [P1,P4-DI(adenosine-5')tetraphosphate ammonium salt] ... 5.12
CCCCC1C(=O)N(c2ccccc2)N(c2ccc(O)cc2)C1=O (centres undefined) ... -34.9
NC(=O)N/N=C/c1ccc([N+](=O)[O-])o1 ... -3.72
Cc1cc(/C=C2\SC(=O)N(c3ccccc3)C2=O)c(C)n1-c1cccnc1 ... -4.98
CC(=O)Oc1ccccc1C(=O)Nc1ncc([N+](=O)[O-])s1 [Nitazoxanide] ... -4.25
CSc1ccc2c(c1)N(CCC1CCCCN1C)c1ccccc1S2 (centres undefined) ... 7.95
Oc1ccc(Cl)c2cccnc12 ... -6.2
[2H]C([2H])([2H])C(O)(CCO[C@@H](C)[C@H]1CC[C@H]2/C(=C/C=C3/C[C@@H](O)C[C@H](O)C3=C)CCC[C@]12C)C([2H])([2H])[2H] ... 9.68

###

Item-by-item account of relative growth recovery
test system: HEK293FT dCK*-IKZF1; experiment: relative growth recovery (pomalidomide 10 uM = 100%, DMSO = 0%); higher = more growth rescue (IKZF1 fusion degradation); settings: compound concentration: 5 uM; AraC concentration: 0.3 uM; overnight pretreatment + 4 days AraC
Where a name gives a salt, the structure may show the parent alone.
QUANTITY_NAME: relative growth recovery (%)

CC(CCc1ccc(O)cc1)NCCc1ccc(O)c(O)c1 (stereo not given) [Dobutamine HCl] ... -1.12
O=C1Nc2cc(Br)ccc2/C1=C1/Nc2ccccc2/C1=N\O ... -4.43
Cc1ccc(S(=O)(=O)c2ccc([N+](=O)[O-])o2)cc1 ... -12.9
CC(C)N(CCC(=O)c1ccc2ccccc2c1)Cc1ccccc1 ... 0.035
COc1cc2c(cc1OC)[C@@H]1Cc3ccc(OC)c(OC)c3CN1CC2 ... -10.7
FC(F)(F)c1ccccc1-c1cc(C(F)(F)F)c2[nH]c(C3=NOC4(CCCCC4)C3)nc2c1 ... -3.06
Cc1ccc2c(=O)c3ccccc3n(CCCN)c2c1C ... -14.4
NC(=S)N/N=C/c1ncccc1N ... -13
O=c1[nH]nc(Sc2ncc([N+](=O)[O-])s2)n1-c1ccc2c(c1)OCCO2 ... -12.8
COc1ccc(C2CC(c3c(O)cc(C)oc3=O)=NCCS2)c(OC)c1 (stereo not given) ... -10.9
